# Assayed Target: human β1-adrenergic receptor (Homo sapiens, UniProt P08588)
# Construct: expressed in transfected cells; host or cells: CHO cells
# Sequence (P08588 whole entry): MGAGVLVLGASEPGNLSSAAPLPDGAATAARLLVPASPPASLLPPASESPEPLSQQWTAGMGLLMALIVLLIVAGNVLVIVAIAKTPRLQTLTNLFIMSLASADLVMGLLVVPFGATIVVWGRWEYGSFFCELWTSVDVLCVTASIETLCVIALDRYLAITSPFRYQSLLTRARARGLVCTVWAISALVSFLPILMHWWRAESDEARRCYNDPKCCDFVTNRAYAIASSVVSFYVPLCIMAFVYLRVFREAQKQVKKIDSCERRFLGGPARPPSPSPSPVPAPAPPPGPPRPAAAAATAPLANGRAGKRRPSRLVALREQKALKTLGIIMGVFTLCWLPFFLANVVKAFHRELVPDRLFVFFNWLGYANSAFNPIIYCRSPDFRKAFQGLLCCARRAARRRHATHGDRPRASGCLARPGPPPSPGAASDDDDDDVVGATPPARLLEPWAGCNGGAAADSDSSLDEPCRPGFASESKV
# Assay: cAMP accumulation (SPA) in CHO cells transfected with human β1 adrenergic receptor
# Assay type: cell-based
# Condition Summary: IA = % activity compound / % activity isoproterenol at 10^−5 M; CHO human β1 cells
Endpoint Label: beta-1 (IA) maximal response relative to isoproterenol

Item Smiles: CCOC(=O)[C@H]1CCCN1S(=O)(=O)c1ccc(N2CCC(NC[C@H](O)c3ccc(O)c(NS(C)(=O)=O)c3)CC2)cc1
Result: (1.1)

Item Smiles: CCOC(=O)CN(Cc1cc(F)ccc1F)S(=O)(=O)c1ccc(N2CCC(NC[C@H](O)c3ccc(O)c(NS(C)(=O)=O)c3)CC2)cc1
Result: (0.3)

Item Smiles: CCCCNS(=O)(=O)c1ccc(N2CCC(NC[C@H](O)c3ccc(O)c(NS(C)(=O)=O)c3)CC2)cc1
Result: (1)

Item Smiles: COC(=O)N(CC(=O)O)S(=O)(=O)c1ccc(N2CCC(NC[C@H](O)c3ccc(O)c(NS(C)(=O)=O)c3)CC2)cc1
Result: (0.18)

Item Smiles: COC(=O)CNS(=O)(=O)c1ccc(N2CCC(NC[C@H](O)c3ccc(O)c(NS(C)(=O)=O)c3)CC2)cc1
Result: (0.18)
